# assay_name: self-splicing fitness, log relative to wild type (ln ratio); higher = more splicing; Tetrahymena group I intron in knt gene, E. coli kanamycin selection, DiMSum; sequences stand for … in CUCUCU…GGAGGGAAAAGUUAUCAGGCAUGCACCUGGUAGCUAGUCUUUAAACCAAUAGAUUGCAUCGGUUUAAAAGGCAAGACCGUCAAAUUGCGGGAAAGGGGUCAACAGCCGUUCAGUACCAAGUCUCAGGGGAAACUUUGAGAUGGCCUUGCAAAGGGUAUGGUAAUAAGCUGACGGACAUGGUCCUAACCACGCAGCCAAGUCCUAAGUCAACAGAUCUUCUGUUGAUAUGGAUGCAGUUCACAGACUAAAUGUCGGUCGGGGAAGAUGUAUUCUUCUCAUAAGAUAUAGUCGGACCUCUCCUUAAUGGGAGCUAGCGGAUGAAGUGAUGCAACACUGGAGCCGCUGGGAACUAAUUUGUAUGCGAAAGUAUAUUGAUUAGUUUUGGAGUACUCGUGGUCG;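 also: selection with 25 µg/mL kanamycin versus none on LB agar overnight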
# particulars: 37 °C
Exercise: state measured self-splicing fitness (ln) for each of the sequences provided.
# print the numeric value only

IN: Note down self-splicing fitness (ln) recorded for `UUCCAGCAAUAUUACGCAAA`
OUT: -0.0764

IN: Note down self-splicing fitness (ln) recorded for `UCAGAGCAAUAUUACGAAGG`
OUT: -1.84

IN: Note down self-splicing fitness (ln) recorded for `CGUAAGCAAUAUUACGGAAG`
OUT: -1.41

IN: Note down self-splicing fitness (ln) recorded for `UUGGAGCAAUAUUACGAGAC`
OUT: -2.25

IN: Note down self-splicing fitness (ln) recorded for `GGCGAGCAAUAUUACGGUUU`
OUT: 0.0414

IN: Note down self-splicing fitness (ln) recorded for `UAAGAGCAAUAUUACGACAA`
OUT: -1.79

IN: Note down self-splicing fitness (ln) recorded for `GGUUAGCAAUAUUACGCCUC`
OUT: -1.4

IN: Note down self-splicing fitness (ln) recorded for `CACUAGCAAUAUUACGUAUA`
OUT: -1.5

IN: Note down self-splicing fitness (ln) recorded for `CGCUAGCAAUAUUACGGAAA`
OUT: -1.49

IN: Note down self-splicing fitness (ln) recorded for `AGUCAGCAAUAUUACGUUGG`
OUT: -1.83

IN: Note down self-splicing fitness (ln) recorded for `CAGCAGCAAUAUUACGUCGG`
OUT: -0.0699

IN: Note down self-splicing fitness (ln) recorded for `CAAGAGCAAUAUUACGCCUG`
OUT: -2.17

IN: Note down self-splicing fitness (ln) recorded for `CGUGAGCAAUAUUACGGGUU`
OUT: -2.65

IN: Note down self-splicing fitness (ln) recorded for `CAAAAGCAAUAUUACGAAAU`
OUT: -2.89

IN: Note down self-splicing fitness (ln) recorded for `CUCGAGCAAUAUUACGCUGU`
OUT: -2.66

IN: Note down self-splicing fitness (ln) recorded for `AGGCAGCAAUAUUACGUAUC`
OUT: -0.296

IN: Note down self-splicing fitness (ln) recorded for `CUGUAGCAAUAUUACGUGUU`
OUT: -0.79

IN: Note down self-splicing fitness (ln) recorded for `CGGGAGCAAUAUUACGUAUU`
OUT: -2.31

IN: Note down self-splicing fitness (ln) recorded for `UGCGAGCAAUAUUACGUUUG`
OUT: -2.88

* * *

# assay_name: self-splicing fitness, log relative to wild type (ln ratio); higher = more splicing; Tetrahymena group I intron in knt gene, E. coli kanamycin selection, DiMSum; sequences stand for … in CUCUCU…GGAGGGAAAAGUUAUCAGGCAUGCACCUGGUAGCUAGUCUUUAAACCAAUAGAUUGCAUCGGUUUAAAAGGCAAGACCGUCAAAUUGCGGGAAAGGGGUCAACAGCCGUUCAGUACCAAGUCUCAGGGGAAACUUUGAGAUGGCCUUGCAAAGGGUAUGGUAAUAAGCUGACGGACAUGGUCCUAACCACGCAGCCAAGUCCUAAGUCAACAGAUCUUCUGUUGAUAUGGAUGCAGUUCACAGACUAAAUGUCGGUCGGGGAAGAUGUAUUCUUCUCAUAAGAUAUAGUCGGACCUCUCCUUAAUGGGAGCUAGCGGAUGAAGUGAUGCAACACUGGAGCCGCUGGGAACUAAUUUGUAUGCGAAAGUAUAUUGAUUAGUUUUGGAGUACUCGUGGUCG
# particulars: 30 °C
Exercise: state measured self-splicing fitness (ln) for each of the sequences provided.
# print the numeric value only

IN: Note down self-splicing fitness (ln) recorded for `GGUCAGCAAUAUUACGUGAU`
OUT: -3.88

IN: Note down self-splicing fitness (ln) recorded for `CUCUAGCAAUAUUACGCCGG`
OUT: -2.98

IN: Note down self-splicing fitness (ln) recorded for `GGGGAGCAAUAUUACGGCAC`
OUT: -1.39

IN: Note down self-splicing fitness (ln) recorded for `ACCAAGCAAUAUUACGGGGU`
OUT: -3.66

IN: Note down self-splicing fitness (ln) recorded for `UCAUAGCAAUAUUACGAAUA`
OUT: -2.82

IN: Note down self-splicing fitness (ln) recorded for `AAAGAGCAAUAUUACGACCA`
OUT: -1.98

IN: Note down self-splicing fitness (ln) recorded for `ACAGAGCAAUAUUACGCUGA`
OUT: -3.27

IN: Note down self-splicing fitness (ln) recorded for `UCACAGCAAUAUUACGCUCG`
OUT: -1.15

IN: Note down self-splicing fitness (ln) recorded for `CGAGAGCAAUAUUACGGAUG`
OUT: -3.42

IN: Note down self-splicing fitness (ln) recorded for `CAUUAGCAAUAUUACGUCUA`
OUT: -2.74

IN: Note down self-splicing fitness (ln) recorded for `GGCAAGCAAUAUUACGAGCA`
OUT: -0.434

IN: Note down self-splicing fitness (ln) recorded for `GCACAGCAAUAUUACGGUAG`
OUT: -3.61

IN: Note down self-splicing fitness (ln) recorded for `GAACAGCAAUAUUACGCGCG`
OUT: -0.924

IN: Note down self-splicing fitness (ln) recorded for `GUAUAGCAAUAUUACGGAGU`
OUT: -3.8

IN: Note down self-splicing fitness (ln) recorded for `CACUAGCAAUAUUACGUUUA`
OUT: -4.15

IN: Note down self-splicing fitness (ln) recorded for `AUAGAGCAAUAUUACGGUCC`
OUT: -2.61

IN: Note down self-splicing fitness (ln) recorded for `GGACAGCAAUAUUACGGACU`
OUT: -1.01

IN: Note down self-splicing fitness (ln) recorded for `GGUGAGCAAUAUUACGGAAU`
OUT: -2.53

IN: Note down self-splicing fitness (ln) recorded for `GCCGAGCAAUAUUACGCUCC`
OUT: -0.576

IN: Note down self-splicing fitness (ln) recorded for `CUGAAGCAAUAUUACGGUCU`
OUT: -4.07

IN: Note down self-splicing fitness (ln) recorded for `UUAAAGCAAUAUUACGGUAA`
OUT: -0.33

IN: Note down self-splicing fitness (ln) recorded for `CGUUAGCAAUAUUACGACAC`
OUT: -2.43

IN: Note down self-splicing fitness (ln) recorded for `CCAGAGCAAUAUUACGGACG`
OUT: -1.73

IN: Note down self-splicing fitness (ln) recorded for `GGAUAGCAAUAUUACGUCCA`
OUT: -1.4

IN: Note down self-splicing fitness (ln) recorded for `UCGGAGCAAUAUUACGGCAU`
OUT: -2.73

IN: Note down self-splicing fitness (ln) recorded for `CACGAGCAAUAUUACGAGGG`
OUT: -3.64

IN: Note down self-splicing fitness (ln) recorded for `AUGCAGCAAUAUUACGGAUC`
OUT: -2.52

IN: Note down self-splicing fitness (ln) recorded for `AUUUAGCAAUAUUACGGGAG`
OUT: -2.97

IN: Note down self-splicing fitness (ln) recorded for `GGGCAGCAAUAUUACGAUUA`
OUT: -1.27

IN: Note down self-splicing fitness (ln) recorded for `UGAGAGCAAUAUUACGCCGC`
OUT: -3.41

IN: Note down self-splicing fitness (ln) recorded for `GGCUAGCAAUAUUACGAAAU`
OUT: -1.67

IN: Note down self-splicing fitness (ln) recorded for `AGAUAGCAAUAUUACGAUAU`
OUT: -1.02

IN: Note down self-splicing fitness (ln) recorded for `CUAUAGCAAUAUUACGGCGU`
OUT: -4.65

IN: Note down self-splicing fitness (ln) recorded for `CUGGAGCAAUAUUACGCAGC`
OUT: -3.72

IN: Note down self-splicing fitness (ln) recorded for `GCAUAGCAAUAUUACGGGAU`
OUT: -1.41

IN: Note down self-splicing fitness (ln) recorded for `UAAGAGCAAUAUUACGUGCG`
OUT: -3.85

IN: Note down self-splicing fitness (ln) recorded for `CACUAGCAAUAUUACGAGGG`
OUT: -3.29

IN: Note down self-splicing fitness (ln) recorded for `AUCGAGCAAUAUUACGAAAA`
OUT: -3.6

IN: Note down self-splicing fitness (ln) recorded for `CACUAGCAAUAUUACGUAAC`
OUT: -3.68

IN: Note down self-splicing fitness (ln) recorded for `GUCGAGCAAUAUUACGAUGA`
OUT: -1.6

IN: Note down self-splicing fitness (ln) recorded for `UAUUAGCAAUAUUACGAGGG`
OUT: -3.12

IN: Note down self-splicing fitness (ln) recorded for `UUCGAGCAAUAUUACGGCUG`
OUT: -2.58

IN: Note down self-splicing fitness (ln) recorded for `AUGAAGCAAUAUUACGUUGA`
OUT: -2.39

IN: Note down self-splicing fitness (ln) recorded for `CUGCAGCAAUAUUACGACUC`
OUT: -3.27

IN: Note down self-splicing fitness (ln) recorded for `GUUGAGCAAUAUUACGCUGU`
OUT: -4.02

IN: Note down self-splicing fitness (ln) recorded for `UAGAAGCAAUAUUACGUAGU`
OUT: -3.71

IN: Note down self-splicing fitness (ln) recorded for `GCGAAGCAAUAUUACGGGUA`
OUT: -3.04

IN: Note down self-splicing fitness (ln) recorded for `UACGAGCAAUAUUACGUACA`
OUT: -0.833

IN: Note down self-splicing fitness (ln) recorded for `CGCUAGCAAUAUUACGCCCA`
OUT: -0.642

IN: Note down self-splicing fitness (ln) recorded for `UGUUAGCAAUAUUACGCUUG`
OUT: -2.03

IN: Note down self-splicing fitness (ln) recorded for `CAAAAGCAAUAUUACGGUAA`
OUT: -1.91

IN: Note down self-splicing fitness (ln) recorded for `UAAAAGCAAUAUUACGAUUG`
OUT: -1.18

IN: Note down self-splicing fitness (ln) recorded for `UGUCAGCAAUAUUACGUCAA`
OUT: -0.787

IN: Note down self-splicing fitness (ln) recorded for `AACCAGCAAUAUUACGGGGG`
OUT: -2.43

IN: Note down self-splicing fitness (ln) recorded for `ACGAAGCAAUAUUACGCACC`
OUT: -0.755

IN: Note down self-splicing fitness (ln) recorded for `GCCGAGCAAUAUUACGUCUA`
OUT: -3.15

IN: Note down self-splicing fitness (ln) recorded for `UCGGAGCAAUAUUACGCGAU`
OUT: -3.51

IN: Note down self-splicing fitness (ln) recorded for `AUGCAGCAAUAUUACGCCCG`
OUT: -1.22

IN: Note down self-splicing fitness (ln) recorded for `GCAAAGCAAUAUUACGAGUG`
OUT: -2.57

IN: Note down self-splicing fitness (ln) recorded for `GUAAAGCAAUAUUACGUAUA`
OUT: -1.53

IN: Note down self-splicing fitness (ln) recorded for `CACCAGCAAUAUUACGCUCA`
OUT: -1.42

IN: Note down self-splicing fitness (ln) recorded for `GUGCAGCAAUAUUACGAGUA`
OUT: -2.62

IN: Note down self-splicing fitness (ln) recorded for `GAUCAGCAAUAUUACGAUAC`
OUT: -1.08

IN: Note down self-splicing fitness (ln) recorded for `GCUCAGCAAUAUUACGAGUU`
OUT: -1.85

IN: Note down self-splicing fitness (ln) recorded for `GGUGAGCAAUAUUACGACUG`
OUT: -0.488

IN: Note down self-splicing fitness (ln) recorded for `UUCUAGCAAUAUUACGGAGC`
OUT: -2.48
